- target-or-system: recombinant human α1D receptor (Homo sapiens, UniProt P25100)
- Construct: expressed in transfected cells; host or cells: human embryonic kidney 293 cells (HEK93 [sic]), membranes
- Sequence (P25100 1-572): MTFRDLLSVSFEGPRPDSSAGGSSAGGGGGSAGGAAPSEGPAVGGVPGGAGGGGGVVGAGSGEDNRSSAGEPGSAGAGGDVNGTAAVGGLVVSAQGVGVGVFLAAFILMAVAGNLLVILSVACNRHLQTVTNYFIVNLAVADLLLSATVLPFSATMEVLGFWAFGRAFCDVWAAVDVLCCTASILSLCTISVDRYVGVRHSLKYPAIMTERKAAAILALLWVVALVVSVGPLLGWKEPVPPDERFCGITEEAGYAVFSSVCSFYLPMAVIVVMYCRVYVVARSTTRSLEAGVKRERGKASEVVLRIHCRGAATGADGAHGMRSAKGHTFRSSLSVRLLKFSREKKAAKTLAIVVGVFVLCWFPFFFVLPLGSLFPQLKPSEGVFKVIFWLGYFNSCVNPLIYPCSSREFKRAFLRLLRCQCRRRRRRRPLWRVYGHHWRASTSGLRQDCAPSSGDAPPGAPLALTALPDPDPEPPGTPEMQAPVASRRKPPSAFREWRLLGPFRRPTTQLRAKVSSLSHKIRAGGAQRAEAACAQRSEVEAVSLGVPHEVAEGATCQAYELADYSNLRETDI
- measurement-protocol: Adrenergic α1D selectivity assay, [3H]-prazosin binding to membranes
- condition-label: inhibition of [3H]-prazosin binding, HEK cell membranes, read-out: α1 bind pIC50 (converted)
quantity-kind: IC50 (nM)

(1) CCCC[C@@H](C)N(CCNCCc1ccc(O)c2c1OCC(=O)N2)C(=O)CCNCCc1ccccc1 [Example 25, bis(trifluoroacetate)]
(2) Cc1cc(CCNCCC(=O)N(CCNCCc2ccc(O)c3c2OCC(=O)N3)C2CCCCC2)ccc1F [Example 40, bis(trifluoroacetate)]
Between the two listed entries 1 and 2 , which has its IC50 at the higher number? Pick one; state its label.
1
(1: 63.1 nM, 2: 31.6 nM)
